Where do these numbers come from? They come from PubChem BioAssay AID2060902.

system: 485368-065-R3-J5-PDC spheroids with HUVEC/MSC, viability; experiment: Anticancer human tumor 485368-065-R3-J5-PDC patient-derived pancreatic carcinoma cell line growth inhibition [RAS]; settings: second compound 0.003 µM; first compound 0.01 µM; stronger effect = lower value
parameter.measured: viability, T/C

Please review the entries below; each comes with its answer.
[
  {
    "compound": "Nc1ccn(C2OC(CO)C(O)C2(F)F)c(=O)n1 (centres undefined) + CCn1c(-c2cccnc2C(C)OC)c2c3cc(ccc31)N1CCOC(CC(NC(=O)C(C(C)C)N(C)C(=O)C3(F)CCN(C(=O)C#CC(C)(C)N(C)C)CC3)C(=O)N3CCCC(N3)C(=O)OCC(C)(C)C2)C1",
    "viability, T/C": "29.2%"
  },
  {
    "compound": "Nc1ccn(C2OC(CO)C(O)C2(F)F)c(=O)n1 (centres undefined) + CCn1c(-c2cc(N3CCN(C)CC3)cnc2C(C)OC)c2c3cc(ccc31)-c1csc(n1)CC(NC(=O)C1CC1C)C(=O)N1CCCC(N1)C(=O)OCC(C)(C)C2",
    "viability, T/C": "12.8%"
  },
  {
    "compound": "CCN1CCN(Cc2ccc(Nc3ncc(F)c(-c4cc(F)c5nc(C)n(C(C)C)c5c4)n3)nc2)CC1 + CCn1c(-c2cccnc2C(C)OC)c2c3cc(ccc31)N1CCOC(CC(NC(=O)C(C(C)C)N(C)C(=O)C3(F)CCN(C(=O)C#CC(C)(C)N(C)C)CC3)C(=O)N3CCCC(N3)C(=O)OCC(C)(C)C2)C1",
    "viability, T/C": "91.5%"
  }
]

Here's the next entry for you.
// query Entry CCN1CCN(Cc2ccc(Nc3ncc(F)c(-c4cc(F)c5nc(C)n(C(C)C)c5c4)n3)nc2)CC1 + CCn1c(-c2cc(N3CCN(C)CC3)cnc2C(C)OC)c2c3cc(ccc31)-c1csc(n1)CC(NC(=O)C1CC1C)C(=O)N1CCCC(N1)C(=O)OCC(C)(C)C2 : reported viability, T/C = ?
// result 21.1%

----------
test system: 485368-065-R3-J5-PDC spheroids with HUVEC/MSC, viability; assay: Anticancer human tumor 485368-065-R3-J5-PDC cell line growth inhibition [RAS]; conditions: second compound 0.3 µM; first compound 1 µM; active = viability on the fitted dose curve at most 10% of control; inactive = the rest;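 further: spheroids exposed to agents for seven days before readout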
Returns: one label drawn from class 1 (active), class 0 (inactive)

Solved entries (count: 2):
[
  {
    "compound": "NC1c2ccccc2OC12CCN(c1cnc3c(N4CCCc5ncccc54)n[nH]c3n1)CC2 (centres undefined) + CCn1c(-c2cc(N3CCN(C)CC3)cnc2C(C)OC)c2c3cc(ccc31)-c1csc(n1)CC(NC(=O)C1CC1C)C(=O)N1CCCC(N1)C(=O)OCC(C)(C)C2",
    "system.tested": "485368-065-R3-J5-PDC spheroids with HUVEC/MSC, viability",
    "assigned.category": "class 1"
  },
  {
    "compound": "CC1(O)CCCC1n1c(=O)c(C(F)F)cc2cnc(NC3CCN(S(C)(=O)=O)CC3)nc21 (centres undefined) + CCn1c(-c2cccnc2C(C)OC)c2c3cc(ccc31)N1CCOC(CC(NC(=O)C(C(C)C)N(C)C(=O)C3(F)CCN(C(=O)C#CC(C)(C)N(C)C)CC3)C(=O)N3CCCC(N3)C(=O)OCC(C)(C)C2)C1",
    "system.tested": "485368-065-R3-J5-PDC spheroids with HUVEC/MSC, viability",
    "assigned.category": "class 0"
  }
]

// query Hello, I am checking results. What call was entered for O=C(c1ccc(F)c(F)c1Nc1ccc(I)cc1F)N1CC(O)([C@@H]2CCCCN2)C1 + CCn1c(-c2cc(N3CCN(C)CC3)cnc2C(C)OC)c2c3cc(ccc31)-c1csc(n1)CC(NC(=O)C1CC1C)C(=O)N1CCCC(N1)C(=O)OCC(C)(C)C2 ?
// result class 1

// query Hello, I am checking results. What call was entered for CC(=O)OC12COC1CC(O)C1(C)C(=O)C(O)C3=C(C)C(OC(=O)C(O)C(NC(=O)OC(C)(C)C)c4ccccc4)CC(O)(C(OC(=O)c4ccccc4)C21)C3(C)C (centres undefined) + CCn1c(-c2cccnc2C(C)OC)c2c3cc(ccc31)N1CCOC(CC(NC(=O)C(C(C)C)N(C)C(=O)C3(F)CCN(C(=O)C#CC(C)(C)N(C)C)CC3)C(=O)N3CCCC(N3)C(=O)OCC(C)(C)C2)C1 ?
// result class 0

----------
system: 485368-065-R3-J5-PDC spheroids with HUVEC/MSC, viability; assay: Anticancer human tumor 485368-065-R3-J5-PDC cell line growth inhibition [RAS]; settings: second compound 0.00316 µM; first compound 0.316 µM; stronger effect = lower value;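 further: spheroids exposed to agents for seven days before readout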
parameter.measured: viability, T/C

[
  {
    "molecule": "O=C(c1ccc(F)c(F)c1Nc1ccc(I)cc1F)N1CC(O)([C@@H]2CCCCN2)C1 + C=CC(=O)N1CCN(c2nc(OCC3CCCN3C)nc3c(F)c(-c4nc(N)cc(C)c4C(F)(F)F)c(Cl)cc23)C(C)C1",
    "viability, T/C": "24.3%"
  }
]

// query Entry CCC(CC)c1cc(NC2CCC(N)C2)n2nccc2n1 (stereo not drawn) + C=CC(=O)N1CCN(c2nc(OCC3CCCN3C)nc3c(F)c(-c4nc(N)cc(C)c4C(F)(F)F)c(Cl)cc23)C(C)C1 : reported viability, T/C = ?
// result 114%

// query Entry CCN1CCN(Cc2ccc(Nc3ncc(F)c(-c4cc(F)c5nc(C)n(C(C)C)c5c4)n3)nc2)CC1 + C=CC(=O)N1CCN(c2nc(OCC3CCCN3C)nc3c(F)c(-c4nc(N)cc(C)c4C(F)(F)F)c(Cl)cc23)C(C)C1 : reported viability, T/C = ?
// result 48.1%

----------
Recorded IC50, one value per entry.
tested on: 485368-065-R3-J5-PDC spheroids with HUVEC/MSC, viability; assay: Anticancer human tumor 485368-065-R3-J5-PDC cell line growth inhibition [RAS]; settings: curve of first compound; second compound 0.3 µM;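 further: spheroids exposed to agents for seven days before readout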

[
  {
    "compound": "CCc1c2c(nc3ccc(O)cc13)-c1cc3c(c(=O)n1C2)COC(=O)[C@]3(O)CC + CCn1c(-c2cc(N3CCN(C)CC3)cnc2C(C)OC)c2c3cc(ccc31)-c1csc(n1)CC(NC(=O)C1CC1C)C(=O)N1CCCC(N1)C(=O)OCC(C)(C)C2",
    "system.tested": "485368-065-R3-J5-PDC spheroids with HUVEC/MSC, viability",
    "IC50": "< 0.949 nM"
  }
]

// query Quick check: IC50 on 485368-065-R3-J5-PDC spheroids with HUVEC/MSC, viability, item CCc1c2c(nc3ccc(O)cc13)-c1cc3c(c(=O)n1C2)COC(=O)[C@]3(O)CC + CCn1c(-c2cccnc2C(C)OC)c2c3cc(ccc31)N1CCOC(CC(NC(=O)C(C(C)C)N(C)C(=O)C3(F)CCN(C(=O)C#CC(C)(C)N(C)C)CC3)C(=O)N3CCCC(N3)C(=O)OCC(C)(C)C2)C1 ?
// result 2.01 nM

// query Quick check: IC50 on 485368-065-R3-J5-PDC spheroids with HUVEC/MSC, viability, item NC1c2ccccc2OC12CCN(c1cnc3c(N4CCCc5ncccc54)n[nH]c3n1)CC2 (stereo unspecified) + CCn1c(-c2cccnc2C(C)OC)c2c3cc(ccc31)N1CCOC(CC(NC(=O)C(C(C)C)N(C)C(=O)C3(F)CCN(C(=O)C#CC(C)(C)N(C)C)CC3)C(=O)N3CCCC(N3)C(=O)OCC(C)(C)C2)C1 ?
// result > 10000 nM

// query Quick check: IC50 on 485368-065-R3-J5-PDC spheroids with HUVEC/MSC, viability, item C=CC(=O)Nc1cc(Nc2nccc(-c3cn(C)c4ccccc34)n2)c(OC)cc1N(C)CCN(C)C + CCn1c(-c2cccnc2C(C)OC)c2c3cc(ccc31)N1CCOC(CC(NC(=O)C(C(C)C)N(C)C(=O)C3(F)CCN(C(=O)C#CC(C)(C)N(C)C)CC3)C(=O)N3CCCC(N3)C(=O)OCC(C)(C)C2)C1 ?
// result > 1000 nM

// query Quick check: IC50 on 485368-065-R3-J5-PDC spheroids with HUVEC/MSC, viability, item CCN1CCN(Cc2ccc(Nc3ncc(F)c(-c4cc(F)c5nc(C)n(C(C)C)c5c4)n3)nc2)CC1 + CCn1c(-c2cccnc2C(C)OC)c2c3cc(ccc31)N1CCOC(CC(NC(=O)C(C(C)C)N(C)C(=O)C3(F)CCN(C(=O)C#CC(C)(C)N(C)C)CC3)C(=O)N3CCCC(N3)C(=O)OCC(C)(C)C2)C1 ?
// result > 1000 nM

// query Quick check: IC50 on 485368-065-R3-J5-PDC spheroids with HUVEC/MSC, viability, item CCC(CC)c1cc(NC2CCC(N)C2)n2nccc2n1 (stereo unspecified) + CCn1c(-c2cccnc2C(C)OC)c2c3cc(ccc31)N1CCOC(CC(NC(=O)C(C(C)C)N(C)C(=O)C3(F)CCN(C(=O)C#CC(C)(C)N(C)C)CC3)C(=O)N3CCCC(N3)C(=O)OCC(C)(C)C2)C1 ?
// result 2000 nM
